test system: Danio rerio larvae (5 dpf); experiment: excitability (activity period 17 minus period 16, 1-s interval sound) minus DMSO control (percentage points); higher = more acoustic excitability than DMSO larvae; settings: 10 µM; exposure time: 3 h pre-incubation + 3 h imaging
Structures can show the parent of a compound that is named as a salt.
readout: excitability

1. COc1ccccc1OCC(O)CN1CCN(CC(=O)Nc2c(C)cccc2C)CC1 (stereo unspecified) [Ranolazine dihydrochloride] ... 4.28
2. COc1cc(N)c(Cl)cc1C(=O)NC1CCN(CCCOc2ccc(F)cc2)CC1OC (stereo unspecified) [Cisapride] ... 18.5
3. CCc1nc(N)nc(N)c1-c1ccc(Cl)cc1 [Pyrimethamine] ... 6.57
4. Clc1ccc2nsnc2c1NC1=NCCN1 [Tizanidine hydrochloride] ... 6.39
5. CN[C@H]1CC[C@@H](c2ccc(Cl)c(Cl)c2)c2ccccc21 [Sertraline hydrochloride] ... 10.4
6. C[C@@H]1C[C@H]2[C@@H]3CCC4=CC(=O)C=C[C@]4(C)[C@@]3(F)[C@@H](O)C[C@]2(C)[C@@]1(O)C(=O)CO [Dexamethasone] ... -4.14
7. NC(=O)OCC(COC(N)=O)c1ccccc1 [Felbamate] ... -3.94
8. C[C@H]1O[C@H](O[C@H]2[C@H](O)[C@@H](O)[C@@H](O[C@H]3[C@H](O)[C@@H](O)C(O)O[C@@H]3CO)O[C@@H]2CO)[C@H](O)[C@@H](O)[C@@H]1N[C@H]1C=C(CO)[C@@H](O)[C@H](O)[C@H]1O (stereo partly specified) [Acarbose] ... -4.36
9. CC(C)COCC(CN(Cc1ccccc1)c1ccccc1)N1CCCC1 (stereo unspecified) [Bepridil hydrochloride] ... 14.7
10. CC(=O)Oc1cc2c(s1)CCN(C(C(=O)C1CC1)c1ccccc1F)C2 (stereo unspecified) [Prasugrel] ... 5.89
11. OC(c1cc(C(F)(F)F)nc2c(C(F)(F)F)cccc12)C1CCCCN1 (stereo unspecified) [Mefloquine hydrochloride] ... 13.3
12. CC[C@H]1OC(=O)[C@H](C)[C@@H](O[C@H]2C[C@@](C)(OC)[C@@H](O)[C@H](C)O2)[C@H](C)[C@@H](O[C@@H]2O[C@H](C)C[C@H](N(C)C)[C@H]2O)[C@](C)(O)C[C@@H](C)CN(C)[C@H](C)[C@@H](O)[C@]1(C)O [Azithromycin] ... 15.8
13. Cc1cc2c(s1)Nc1ccccc1N=C2N1CCN(C)CC1 [Olanzapine] ... 2.72
14. CCCCCCCN(CC)CCCC(O)c1ccc(NS(C)(=O)=O)cc1 (stereo unspecified) [Ibutilide hemifumarate] ... 13.3
15. CCCc1nn(C)c2c(=O)[nH]c(-c3cc(S(=O)(=O)N4CCN(C)CC4)ccc3OCC)nc12 [Sildenafil citrate] ... 4.28
16. CNS(=O)(=O)Cc1ccc2[nH]cc(CCN(C)C)c2c1 [Sumatriptan succinate] ... -4.97
